Data origin, for the record: patent US11059800B2

Test system: KG-1
Experimental Details: Cytotoxicity, annexin V/7-AAD viability by flow cytometry, KG-1
Format: cell-based, human
Condition Details: KG-1, 48 hours, drug range tested 1.25-160 μM
Quantity Kind: LD50

Reported LD50 for KG-1, given CC1=CC(=O)C2=C(C)CCC3C(CN4CCCCC4)C(=O)OC3C12 (centres unmarked) ? 182 µM

And the next one, CC1=CC(=O)C2=C(C)CCC3C(CN4CCCC4C(=O)O)C(=O)OC3C12 (centres unmarked) ? 97.7 µM

Try the compound C=C1C(=O)O[C@@H]2[C@H]3C(C)=CC(=O)C3=C(C)CC[C@@H]12 [DHL, dehydroleucodine] 18.66 µM

Another: `CC1=CC(=O)C2=C(C)CC[C@@H]3[C@H](OC(=O)[C@H]3C)[C@@H]12` >160 µM

Please answer likewise for CC1=CC(=O)C2=C(C)CCC3C(CN4CCOCC4)C(=O)OC3C12 (centres unmarked) 129 µM
